Test: RAM signaling pathway blockade in yeast – S. cerevisiae, Pdr1DBD-CYC8 efflux-inhibited sensitized strain, primary screen (AID 1298);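 also: 0% = DMSO untreated cells without growth and 100% = 10 µM 1-NA-PP1 full growth; higher means more yeast growth rescued from 5-FOA killing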
Settings: S. cerevisiae cbk1-as DSE1-URA3 strain, 5-FOA growth OD615, 2 d; at 50 µM; active compounds read high
assayReadout: RAM network inhibition (%)
Supply the numeric figure in %, leaving out any unit text.

INPUT: Any idea what its RAM network inhibition is? The compound is "Cc1onc(-c2ccccc2)c1C(=O)Nc1nnc(N2CCCCCC2)s1"
OUTPUT: 3.72

INPUT: Any idea what its RAM network inhibition is? The compound is COc1ccc(CC(NC(=O)c2ccccc2)C(=O)NCC(=O)O)cc1 (stereo unspecified)
OUTPUT: -0.37

INPUT: Any idea what its RAM network inhibition is? The compound is "CCN1CCN(C(=O)C2CCN(Cc3nc(-c4cccc(Cl)c4)oc3C)CC2)CC1"
OUTPUT: 1.16

INPUT: Any idea what its RAM network inhibition is? The compound is "CCC(=O)Nc1c(C)cc(C)cc1Cl"
OUTPUT: 0.83

INPUT: Any idea what its RAM network inhibition is? The compound is "O=C(Nc1ccon1)c1cccc(C(F)(F)F)c1"
OUTPUT: 0.62

INPUT: Any idea what its RAM network inhibition is? The compound is CC1CCN(CC(O)COc2ccc(F)cc2)CC1 (stereo unspecified)
OUTPUT: 2.56

###

Kindly supply the reported viability values for the records listed here.
Assay: growth suppression of PTEN-deleted HCT116, pilot screen, cell-based, HCT116 clonal line, CellTiter-Glo (AID 824);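 also: 0% = 20 µM Hyamine control and 100% = vehicle cell control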
Details: 60 h, at 10 µM, active compounds read low
Results filed as inconclusive are left out. Calls of active or inactive are those of the source.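 The calls were made as follows: active = viability at or below 27.92% in each of two runs, the all-compound median minus 4 SD; inconclusive = no clear call, values can overlap the other calls; inactive = the rest.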

INPUT: Any idea what its viability is? The compound is O=C(NCC1OCCc2ccccc21)c1ccco1 (configuration not stated)
OUTPUT: 96.5% (inactive)

INPUT: Any idea what its viability is? The compound is "Cc1cccn2cc(-c3ccc(F)cc3)nc12"
OUTPUT: 82.9% (inactive)

INPUT: Any idea what its viability is? The compound is "CCSc1nnc(NC(=O)c2cccc(OCc3c(C)noc3C)c2)s1"
OUTPUT: 92.6% (inactive)

INPUT: Any idea what its viability is? The compound is CCC(C)NC(=O)c1cnc2n(c1=O)CCS2 (configuration not stated)
OUTPUT: 103% (inactive)

INPUT: Any idea what its viability is? The compound is CCCCCOC(=O)C1=C(C)NC(=O)NC1c1ccccc1OCC (configuration not stated)
OUTPUT: 69.7% (inactive)

INPUT: Any idea what its viability is? The compound is "COCC(=O)NCc1nc2ccccc2n1Cc1ccccc1F"
OUTPUT: 99.2% (inactive)

INPUT: Any idea what its viability is? The compound is "O=C(CCCCn1c(=O)[nH]c2ccccc2c1=O)N1CCN(c2ncccn2)CC1"
OUTPUT: 105% (inactive)

###

Assay: growth suppression of PTEN-deleted HCT116, pilot screen, cell-based, HCT116 clonal line, CellTiter-Glo (AID 824);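 also: 0% = 20 µM Hyamine control and 100% = vehicle cell control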
Conditions: 60 h, at 10 µM, active compounds read low
Inconclusive results are not listed. Calls of active or inactive are those of the source.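 Rule for the calls: active = viability at or below 27.92% in each of two runs, the all-compound median minus 4 SD; inconclusive = no clear call, values can overlap the other calls; inactive = the rest.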
assayReadout: viability

INPUT: Any idea what its viability is? The compound is "O=C(CCSCCc1ccccn1)Nc1nccs1"
OUTPUT: 94.8% (inactive)

INPUT: Any idea what its viability is? The compound is "COC(=O)Cn1c(CN2CCN(c3ccc(F)cc3)CC2)nc2c1c(=O)n(C)c(=O)n2C"
OUTPUT: 86.2% (inactive)

INPUT: Any idea what its viability is? The compound is "CCOC(=O)N1CCC(Nc2cc(C)nc3c(-c4ccccc4OC)c(C)nn23)CC1"
OUTPUT: 67.8% (inactive)

INPUT: Any idea what its viability is? The compound is COc1ccccc1S(=O)Cc1ccc(C(=O)NCc2ccccc2Cl)o1 (stereo unspecified)
OUTPUT: 89.7% (inactive)

INPUT: Any idea what its viability is? The compound is "CCOC(=O)/C=C/S(=O)(=O)c1ccc(NC(C)=O)cc1"
OUTPUT: 93.5% (inactive)

INPUT: Any idea what its viability is? The compound is CC1CCCCC1NC(=O)c1nnc(Cc2ccc(Cl)cc2)o1 (stereo unspecified)
OUTPUT: 90.8% (inactive)

INPUT: Any idea what its viability is? The compound is "O=c1nc(-c2ccccc2)cn[nH]1"
OUTPUT: 105% (inactive)

INPUT: Any idea what its viability is? The compound is "O=C(Cc1cccs1)Nc1nnc(-c2ccncc2)s1"
OUTPUT: 98.8% (inactive)

INPUT: Any idea what its viability is? The compound is Cc1ccc(-n2c(SCC(=O)Nc3cc(C)on3)nc3c(c2=O)SC(C)C3)cc1 (stereo unspecified)
OUTPUT: 88.4% (inactive)

INPUT: Any idea what its viability is? The compound is "CC(C)NS(=O)(=O)c1ccc2c(c1)oc(=O)n2C"
OUTPUT: 98.7% (inactive)

INPUT: Any idea what its viability is? The compound is "CCOC(=O)CSc1ccc2nnc(-c3ccccc3)n2n1"
OUTPUT: 93.5% (inactive)
